# TARGET OF ASSAY: recombinant human IL-15 (Prospec cat no. CYT230) (human, UniProt P40933 49-162)
# Sequence (P40933 other isoform, or with tags, fused parts or gaps): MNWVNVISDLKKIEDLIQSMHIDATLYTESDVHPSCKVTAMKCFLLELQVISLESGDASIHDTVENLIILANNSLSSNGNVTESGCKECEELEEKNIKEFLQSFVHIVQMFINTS
# ASSAY: ELISA, plate-bound human IL-15; printed as BC50 (half-maximal binding concentration)
The label 1 is reserved for EC50 strictly under 3 nM; 0 covers values equal to or above it.

huB-E29-17 (antibody, human IgG1, kappa, V domains shown, Humanized B-E29 variant; human IgG1 (G1m3) / kappa (Km3), produced in CHO cells; also called huVH15/huVL1) VH: EVRLMASGGGLVQPGGSLRLSCAASEFTFSNYAMSWVRQAPGKGLEWVATISRGGDYTYYPDTVKGRFTISRDNSKNTLYLQMNSLRAEDTAVYYCARRVSMITGGWAMDYWGQGTLVTVSS VL: DVVMTQSPLSLPVTLGQPASISCRSSQSIVDITGNTYLEWYQQRPGQSPRLLIYKVFNRFSGVPDRFSGSGSGTDFTLKISRVEAEDVGVYYCFQDSFVPYTFGQGTKLEIKR	1
huB-E29-22 (antibody, human IgG1, kappa, V domains shown, Humanized B-E29 variant; human IgG1 (G1m3) / kappa (Km3), produced in CHO cells; also called huVH16/huVL6) VH: EVQLVESGGGLVQPGGSLRLSCAASEFTFSNYAMSWVRQAPGKGLEWVATISRGGDYTYYPDSVKGRFTISRDNSKNTLYLQMNSLRAEDTAVYYCARRVSFITGGYAFDYWGQGTLVTVSS VL: DVVMTQSPLSLPVTLGQPASISCRSSQSIVDITGNTYLEWFQQRPGQSPRRLIYKVFNRFSGVPDRFSGSGSGTDFTLKISRVEAEDVGVYYCFQESFVPYTFGQGTKLEIKR	0
huB-E29-13 (antibody, human IgG1, kappa, V domains shown, Humanized B-E29 variant; human IgG1 (G1m3) / kappa (Km3), produced in CHO cells; also called huVH11/huVL1) VH: EVRLMASGGGLVQPGGSLRLSCAASEFTFSNYAMSWVRQAPGKGLEWVATISRGGDYTYYPDSVKGRFTISRDNSKNTLYLQMNSLRAEDTAVYYCARRVSMITGGWALDYWGQGTLVTVSS VL: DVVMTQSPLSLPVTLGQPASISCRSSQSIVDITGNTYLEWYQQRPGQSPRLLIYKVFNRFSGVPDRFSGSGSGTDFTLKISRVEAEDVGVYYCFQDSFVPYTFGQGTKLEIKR	0
huB-E29-34 (antibody, human IgG1, kappa, V domains shown, Humanized B-E29 variant; human IgG1 (G1m3) / kappa (Km3), produced in CHO cells; also called huVH21/huVL6) VH: EVRLMASGGGLVQPGGSLRLSCAASEFTFSNYAMSWVRQAPGKGLEWVATISRGGDYTYYPESVKGRFTISRDNSKNTLYLQMNSLRAEDTAVYYCARRVSFITGGYAMDYWGQGTLVTVSS VL: DVVMTQSPLSLPVTLGQPASISCRSSQSIVDITGNTYLEWFQQRPGQSPRRLIYKVFNRFSGVPDRFSGSGSGTDFTLKISRVEAEDVGVYYCFQESFVPYTFGQGTKLEIKR	0

Switching to the query record.
# check: EC50 < 3 nM for huB-E29-19 (antibody, human IgG1, kappa, V domains shown, Humanized B-E29 variant; human IgG1 (G1m3) / kappa (Km3), produced in CHO cells; also called huVH1/huVL5) VH: EVRLMASGGGLVQPGGSLRLSCAASEFTFSNYAMSWVRQAPGKGLEWVATISRGGDYTYYPDSVKGRFTISRDNSKNTLYLQMNSLRAEDTAVYYCARRVSMITGGWAMDYWGQGTLVTVSS VL: DVVMTQSPLSLPVTLGQPASISCRSSQSIVDITGNTYLEWYQQRPGQSPRLLIYKVFNRFSGVPDRFSGSGSGTDFTLKISRVEAEDVGVYYCFQDTFVPYTFGQGTKLEIKR
1
